B1: TPR 5TU (parent)
chain: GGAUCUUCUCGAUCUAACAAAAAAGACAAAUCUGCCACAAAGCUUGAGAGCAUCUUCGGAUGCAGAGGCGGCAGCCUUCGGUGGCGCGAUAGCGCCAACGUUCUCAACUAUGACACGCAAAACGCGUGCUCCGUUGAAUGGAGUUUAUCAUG

Variants of: B1
ASSAY PROCEDURE: polymerase ribozyme fitness, log enrichment relative to wild type (log ratio); higher = more active; in vitro selection for triplet polymerase activity
Variants at the floor of the assay were thinned out.
Known polymerase ribozyme fitness (log ratio) of a selection of variants
// keep it numeric: no unit symbol after the value

These recorded examples may help you get a feel for the data.
A22U C85A
-0.394
U13A G50A U55A A89C
-3.57

Then there is this variant:
Asked: Which polymerase ribozyme fitness (log ratio) reading was recorded for the variant G11C G50A G92U G143A ?
Given back: -4.01
